Origin of values: paper PMC12418703

Quick reference for Cmax among some compounds
Test: Plasma pharmacokinetics after a single dose of liquid or solid oat product (compartmental PK model)
Type: in vivo, humans
Conditions: both sexes, human, plasma, oral, 196 mL of oat drink; liquid, single dose
Attribute measured: Cmax (nM)

O=C(/C=C/C=C/c1ccc(O)cc1)Nc1ccc(O)cc1C(=O)O	3.1
O=C(/C=C/c1ccc(O)cc1)Nc1ccc(O)cc1C(=O)O	4.94
CC1OC(OC2C(OC3CCC4(C)C(=CCC5C4CCC4(C)C5CC5OC6(CCC(C)(COC7OC(CO)C(O)C(O)C7O)O6)C(C)C54)C3)OC(CO)C(OC3OC(CO)C(O)C(O)C3O)C2O)C(O)C(O)C1O (stereo not shown) [AVE A, Avenacoside A]	1.31
COc1cc(/C=C/C=C/C(=O)Nc2ccc(O)cc2C(=O)O)ccc1O	2.46
COc1cc(/C=C/C(=O)Nc2ccc(O)cc2C(=O)O)ccc1O	0.69
CC1OC(OC2C(OC3CCC4(C)C(=CCC5C4CCC4(C)C5CC5OC6(CCC(C)(COC7OC(CO)C(O)C(O)C7O)O6)C(C)C54)C3)OC(CO)C(OC3OC(CO)C(O)C(OC4OC(CO)C(O)C(O)C4O)C3O)C2O)C(O)C(O)C1O (stereo not shown) [AVE B, Avenacoside B]	0.44
O=C(/C=C/c1ccc(O)c(O)c1)Nc1ccc(O)cc1C(=O)O	1.16

---

Assay: Plasma pharmacokinetics after a single dose of liquid or solid oat product (compartmental PK model)
Assay type: in vivo, humans
Conditions: liquid, Table S1 compartmental model
Attribute measured: V, population estimate (RSE%)

O=C(/C=C/c1ccc(O)cc1)Nc1ccc(O)cc1C(=O)O	113 (16) L
COc1cc(/C=C/C=C/C(=O)Nc2ccc(O)cc2C(=O)O)ccc1O	210 (13) L
CC1OC(OC2C(OC3CCC4(C)C(=CCC5C4CCC4(C)C5CC5OC6(CCC(C)(COC7OC(CO)C(O)C(O)C7O)O6)C(C)C54)C3)OC(CO)C(OC3OC(CO)C(O)C(O)C3O)C2O)C(O)C(O)C1O (stereo not shown) [AVE A, Avenacoside A]	5900 (3) L
O=C(/C=C/C=C/c1ccc(O)cc1)Nc1ccc(O)cc1C(=O)O	130 (16) L
CC1OC(OC2C(OC3CCC4(C)C(=CCC5C4CCC4(C)C5CC5OC6(CCC(C)(COC7OC(CO)C(O)C(O)C7O)O6)C(C)C54)C3)OC(CO)C(OC3OC(CO)C(O)C(OC4OC(CO)C(O)C(O)C4O)C3O)C2O)C(O)C(O)C1O (stereo not shown) [AVE B, Avenacoside B]	2200 (3) L
COc1cc(/C=C/C(=O)Nc2ccc(O)cc2C(=O)O)ccc1O	1600 (34) L
O=C(/C=C/c1ccc(O)c(O)c1)Nc1ccc(O)cc1C(=O)O	500 (19) L

---

Test: Plasma pharmacokinetics after a single dose of liquid or solid oat product (compartmental PK model)
Format: in vivo, humans
Conditions: liquid, single dose
Attribute measured: T1/2 (h)

CC1OC(OC2C(OC3CCC4(C)C(=CCC5C4CCC4(C)C5CC5OC6(CCC(C)(COC7OC(CO)C(O)C(O)C7O)O6)C(C)C54)C3)OC(CO)C(OC3OC(CO)C(O)C(O)C3O)C2O)C(O)C(O)C1O (stereo not drawn) [AVE A, Avenacoside A]	3.17
COc1cc(/C=C/C=C/C(=O)Nc2ccc(O)cc2C(=O)O)ccc1O	1.33
O=C(/C=C/C=C/c1ccc(O)cc1)Nc1ccc(O)cc1C(=O)O	2.45
O=C(/C=C/c1ccc(O)cc1)Nc1ccc(O)cc1C(=O)O	1.33
